Please respond with reported growth for every item in the list.
System: COLO 205 colon
Test: NCI-60 one-dose screen, 48 h (100 = growth as untreated, 0 = no growth, -100 = all killed)
Conditions: 10 µM unless noted
The panel holds about 83,000 compounds, 20% with a hit somewhere; the sample as a whole holds those more often.
Return type: number; implicit unit %.

The reported value for CC[C@]12CN3CCc4c([nH]c5ccccc45)[C@@](C(=O)OC)(c4cc5c(cc4OC)N(C)[C@H]4[C@@](O)(C(=O)OC)[C@H](OC(C)=O)[C@]6(CC)C=CCN7CC[C@]54[C@@H]76)CC(C3)[C@H]1O2 (stereo partly drawn) in terms of growth is -49.9

Input O=C(CCCOc1ccc(Br)cc1)Nc1ncc(Cc2ccc(F)cc2)s1 . Output growth: 63.3

# growth (compound: Cc1nc2cccc(NCCCCC(=O)NO)c2c(=O)n1-c1ccccc1 ) is 62.4

Record FC(F)(F)Sc1ccc(/C=C/c2cc(/C=C/c3ccc(SC(F)(F)F)cc3)n(-c3ccccc3)n2)cc1 . Reported growth: 92.8

Given item COc1c(F)cc(-n2c(C(=O)N3CC(F)C3)cc3cccnc32)cc1F , the value recorded as its growth is 118

GET /value?item= O=c1oc2c(Br)cc(Br)cc2cc1-c1cc(-c2ccc(-c3cc(-c4cc5cc(Br)cc(Br)c5oc4=O)nc(-c4cc5cc(Br)cc(Br)c5oc4=O)c3)cc2)cc(-c2cc3cc(Br)cc(Br)c3oc2=O)n1 &field=growth returns 110

growth in this record for CC1(Cc2ccccc2)CC2=C(C(=O)O1)C(c1ccccc1)NC(=O)N2 (stereo not drawn) : 106

Per the records, this compound ( CCOC(=O)c1nc2c3ccccc3cnn2c1C(=O)c1ccc(OC)cc1 ) has growth equal to 97.5

###

Assignment: determine reported growth for the given molecules.
System: DU-145 prostate
Assay: NCI-60 one-dose screen, 48 h (100 = growth as untreated, 0 = no growth, -100 = all killed)
Conditions: 10 µM unless noted
Compounds without any hit were thinned out: in the full panel of roughly 83,000, 20% have a hit.
Reply with just the number (in %).

The molecule listed as C=CCNC(=O)Cc1c(-c2ccc(OC)cc2)oc2c(OC)c3c(c(OC)c12)OCO3 shows growth equal to 104

Form field growth, entry COc1cc(/C=C2\C(=O)N(CCCCn3c4ccccc4c(=O)c4ccccc43)c3ccccc32)cc(OC)c1O : 60.4

Please fill in: growth reported for O=C1N=c2ccccc2=C1c1sc(=S)n(C2CC(=O)N(c3ccc(Cl)cc3)C2=O)c1O (centres undefined) = 106

The recorded growth for entry C=C1C(=O)O[C@H]2[C@H]1CC/C(COC(=O)NCCCCNC(=O)OC/C1=C/CC[C@@]3(C)O[C@H]3[C@H]3OC(=O)C(=C)[C@@H]3CC1)=C\CC[C@@]1(C)O[C@@H]21 equals 45.8

###

Tested on: NCI/ADR-RES ovarian
Assay: NCI-60 one-dose screen, 48 h (100 = growth as untreated, 0 = no growth, -100 = all killed)
Conditions: 10 µM unless noted
About 83,000 compounds went through this panel and 20% of them were active in at least one assay; those are over-represented in the sample as a whole. The source made the active and inactive calls. The calls were made as follows: active = growth percent below 10; inactive = the rest.
property-measured: growth

Record COc1ccc(-c2cc(-c3cccc(Cl)c3)c(C#N)c(=O)[nH]2)c(OC)c1 , field growth: 90.9% (inactive)

Field growth (entry Cc1[nH]c(C(=O)Nc2nc3ccc(NC(=O)CCN)cc3s2)c(Cl)c1Cl ) reads 58.4% (inactive)

growth measured on O=C1C(N2CCOCC2)=C(I)C(=O)c2ncccc21 = 75.4% (inactive)

Consider Cc1ccc(Cc2cnc(NC(=O)c3cc(C)oc3C)s2)cc1 . Its measured growth is 67.4% (inactive)

Value of measured growth for the entry CON1CCC[C@]2(C)[C@H]3CC[C@@H]4[C@H]5[C@@H](O)C(C)(C)CC[C@]5(CO)CC[C@@]4(C)[C@]3(C)CC[C@H]2C1(C)C : 111% (inactive)

Just so you know, measured growth for CCNC(=O)Oc1ccc(/C(=C(/C)Cc2ccc(OC)cc2)c2ccc(OCCN(CC)CC)cc2)cc1 came out at 78.1% (inactive)

According to the records, this molecule CCCc1cc(C(N)=S)ccn1 displays growth of 87.8% (inactive)

Lab book: growth of Brc1ccc(/C=C(/C2=NCCN2)n2ccc3ccccc32)cc1 noted as 65.9% (inactive)

Summary for this molecule, COc1ccc(Cl)cc1Nc1nc(C(F)(F)F)ccc1C(=O)N/N=C/c1ccc(N(C)C)cc1 : growth is 90% (inactive)

Measured growth of Cc1ccc(C(=O)Nc2nc3c(s2)CN(Cc2ccccc2)CC3)cn1 : 70.5% (inactive)

Entry N#Cc1c(N)nnn1Cc1cc(=O)oc2ccc(O)cc12 — recorded growth = 111% (inactive)

// growth value for C=CCOc1ccc(/C=C2\SC(=S)N(CCc3ccc(O)cc3)C2=O)cc1 : 98.9% (inactive)

growth recorded for this molecule, COC1=CC(=O)C(OC)=C(O)C1=O , is 101% (inactive)

Note to self: growth recorded for CCOc1ccccc1NC(=O)c1cc2ccccc2cc1O was 28.7% (inactive)

For reference, reported growth for CN1CCN(Cc2ccc(NC(=O)c3nc4ccc5[nH]ncc5c4c4c3CCCC4)cc2C(F)(F)F)CC1 stands at -35.3% (active)

So, CC(=O)N1N=C(c2ccc(F)cc2)CC1c1sc(N(C)Cc2ccccc2)nc1Cl (centres undefined) ? Its growth was 92% (inactive)

growth in this record for C=C1CC[C@@H]2[C@](C)(COC(C)=O)[C@H](OC(C)=O)CC[C@@]2(C)[C@@H]1CC(Nc1ccc(S(=O)(=O)Nc2nccs2)cc1)C1=CCOC1=O (some centres undefined) : 9.2% (active)

Entry O=C(/C=C/c1ccc(F)cc1)Nc1ncc(Cc2ccc(F)cc2)s1 — recorded growth = 35.5% (inactive)

Form field growth, entry Cn1cc(-c2nonc2-c2cn(C)c3ccc(Br)cc23)c2ccccc21 : 21% (inactive)

Value of measured growth for the entry Nn1c(-c2ccc(Cl)cc2)nc2c(-c3ccc(Cl)cc3)nc3ccc(Cl)cc3c2c1=O : 52.4% (inactive)

Just so you know, measured growth for CCCCCCCCN(CCCCCCCC)CC(O)c1cc(Cl)ccc1OC (centres undefined) came out at 82.6% (inactive)

Consider O=C1CCCCN1CCCCC#Cc1cccc(C#Cc2cccnc2)c1 . Its measured growth is 72.7% (inactive)

Recorded growth (molecule O=C(CCCOc1ccc(Br)cc1)Nc1ncc(Cc2ccc(F)cc2)s1 ): 73.6% (inactive)

Record COc1cc2c(cc1OCCCOC1=C=C=C(c3ccc4c(c3)c3cc(-c5ccc(OCCCOc6cc7c(cc6OC)C(=O)N6CCC[C@H]6C=N7)cc5)ccc3n4S(=O)(=O)c3ccc(C)cc3)C=C1)N=C[C@@H]1CCCN1C2=O , field growth: 94% (inactive)

The reported value for CC[C@]12CN3CCc4c([nH]c5ccccc45)[C@@](C(=O)OC)(c4cc5c(cc4OC)N(C)[C@H]4[C@@](O)(C(=O)OC)[C@H](OC(C)=O)[C@]6(CC)C=CCN7CC[C@]54[C@@H]76)CC(C3)[C@H]1O2 (some centres undefined) in terms of growth is 82% (inactive)

Recorded result, C[C@]12CCc3c(ccc4cc(O)ccc34)[C@@H]1C[C@H](O)[C@@H]2O , growth: 96% (inactive)

Looking up Nc1n[nH]c2cccc(C#Cc3cccc(NC(=O)c4ccc(N5CCOCC5)c(C(F)(F)F)c4)c3)c12 , I found its growth recorded as 14.4% (inactive)

Looking up Cc1c(O)c(O)cc2c3c(oc12)CC(c1ccc2c(c1)OCO2)CC3=O (centres undefined) , I found its growth recorded as 90.3% (inactive)

Record Cc1cc(N2CCCCC2)nc(NCc2cc(Nc3ccnc4cc(Cl)ccc34)ccc2F)n1 , field growth: 6.86% (active)

Sure, the documented growth for CCCCCCCCCCCCC[C@H](O)C[C@H](O)[C@H](C)N is 85.9% [1.25 µM] (inactive)

// sample Nc1nc(N)c2c(n1)NC(c1ccc(Cl)cc1)CC(c1cccc(Nc3ccncc3)c1)=N2 (centres undefined) , its growth was 100% (inactive)

Reported growth for C[N+]1=C(/C=C\C=C\c2ccccc2)C(C)(C)c2ccccc21 was 75.3% (inactive)

The reported growth of the molecule N#C/C(=C\c1ccccc1Cl)c1cc2ccccc2[nH]1 was 95.5% (inactive)

get_value(item= CC12OC(CC(O)C1O)n1c3ccccc3c3c4c(c5c6ccccc6n2c5c31)C(=O)N(CCN1CCOCC1)C4=O (centres undefined) , readout=growth) returns 15.4% (inactive)

// sample O=c1ccc2nc(-c3ccccn3)nn(-c3ccccc3)c-2c1 , its growth was 98% (inactive)

For Fc1ccc(NC(c2ccc(F)cc2)C2CCN(CCCCc3ccccc3)CC2)cc1 (centres undefined) the molecule record lists growth as 49.5% (inactive)

Recorded growth (molecule CC1(C)C(N)=Nc2cc(OCCCCN3Cc4ccccc4C3)c(OCC3CC3)cc21 ): 92.6% (inactive)

# growth of N#CC1=C(N)Oc2c(sc3c(Br)cccc23)C1c1ccccn1 (centres undefined) = 14.6% (inactive)

Per the records, this molecule ( O=C(NNC(=S)Nc1ccccc1)c1ccncc1 ) has growth equal to 105% (inactive)
